The reader will find reported DC50 values listed item by item below.
assay.target: PIKfyve (Homo sapiens)
Construct: endogenous in cells; host or cells: VCaP
procedure.text: Degradation of PIKfyve proteins in VCaP tumor cells (24 h, Western blot)
Assay type: cell-based
test.context: 37° C., compared with DMSO control, WB, read-out: DC50 (concentration that achieves 50% degradation activity)

• Cc1cccc(/C=N/Nc2cc(N3CCOCC3)nc(OCCc3ccc(NC(=O)CNC(=O)COc4cc(-c5scnc5C)ccc4CNC(=O)[C@@H]4C[C@@H](O)CN4C(=O)[C@@H](NC(=O)C4(F)CC4)C(C)(C)C)cc3)n2)c1 [Example 54] = 1 to 100 nM

Query: Report DC50 for Cc1cccc(/C=N/Nc2cc(N3CCOCC3)nc(OCCc3ccc(NC(=O)CCCNC(=O)COc4cc(-c5scnc5C)ccc4CNC(=O)[C@@H]4C[C@@H](O)CN4C(=O)[C@@H](NC(=O)C4(F)CC4)C(C)(C)C)cc3)n2)c1 [Example 55] please.
Result: 1 to 100 nM

* * *

assay.target: PIKfyve (Homo sapiens, UniProt Q9Y2I7)
Construct: endogenous in cells; host or cells: VCaP
Sequence (Q9Y2I7 whole entry): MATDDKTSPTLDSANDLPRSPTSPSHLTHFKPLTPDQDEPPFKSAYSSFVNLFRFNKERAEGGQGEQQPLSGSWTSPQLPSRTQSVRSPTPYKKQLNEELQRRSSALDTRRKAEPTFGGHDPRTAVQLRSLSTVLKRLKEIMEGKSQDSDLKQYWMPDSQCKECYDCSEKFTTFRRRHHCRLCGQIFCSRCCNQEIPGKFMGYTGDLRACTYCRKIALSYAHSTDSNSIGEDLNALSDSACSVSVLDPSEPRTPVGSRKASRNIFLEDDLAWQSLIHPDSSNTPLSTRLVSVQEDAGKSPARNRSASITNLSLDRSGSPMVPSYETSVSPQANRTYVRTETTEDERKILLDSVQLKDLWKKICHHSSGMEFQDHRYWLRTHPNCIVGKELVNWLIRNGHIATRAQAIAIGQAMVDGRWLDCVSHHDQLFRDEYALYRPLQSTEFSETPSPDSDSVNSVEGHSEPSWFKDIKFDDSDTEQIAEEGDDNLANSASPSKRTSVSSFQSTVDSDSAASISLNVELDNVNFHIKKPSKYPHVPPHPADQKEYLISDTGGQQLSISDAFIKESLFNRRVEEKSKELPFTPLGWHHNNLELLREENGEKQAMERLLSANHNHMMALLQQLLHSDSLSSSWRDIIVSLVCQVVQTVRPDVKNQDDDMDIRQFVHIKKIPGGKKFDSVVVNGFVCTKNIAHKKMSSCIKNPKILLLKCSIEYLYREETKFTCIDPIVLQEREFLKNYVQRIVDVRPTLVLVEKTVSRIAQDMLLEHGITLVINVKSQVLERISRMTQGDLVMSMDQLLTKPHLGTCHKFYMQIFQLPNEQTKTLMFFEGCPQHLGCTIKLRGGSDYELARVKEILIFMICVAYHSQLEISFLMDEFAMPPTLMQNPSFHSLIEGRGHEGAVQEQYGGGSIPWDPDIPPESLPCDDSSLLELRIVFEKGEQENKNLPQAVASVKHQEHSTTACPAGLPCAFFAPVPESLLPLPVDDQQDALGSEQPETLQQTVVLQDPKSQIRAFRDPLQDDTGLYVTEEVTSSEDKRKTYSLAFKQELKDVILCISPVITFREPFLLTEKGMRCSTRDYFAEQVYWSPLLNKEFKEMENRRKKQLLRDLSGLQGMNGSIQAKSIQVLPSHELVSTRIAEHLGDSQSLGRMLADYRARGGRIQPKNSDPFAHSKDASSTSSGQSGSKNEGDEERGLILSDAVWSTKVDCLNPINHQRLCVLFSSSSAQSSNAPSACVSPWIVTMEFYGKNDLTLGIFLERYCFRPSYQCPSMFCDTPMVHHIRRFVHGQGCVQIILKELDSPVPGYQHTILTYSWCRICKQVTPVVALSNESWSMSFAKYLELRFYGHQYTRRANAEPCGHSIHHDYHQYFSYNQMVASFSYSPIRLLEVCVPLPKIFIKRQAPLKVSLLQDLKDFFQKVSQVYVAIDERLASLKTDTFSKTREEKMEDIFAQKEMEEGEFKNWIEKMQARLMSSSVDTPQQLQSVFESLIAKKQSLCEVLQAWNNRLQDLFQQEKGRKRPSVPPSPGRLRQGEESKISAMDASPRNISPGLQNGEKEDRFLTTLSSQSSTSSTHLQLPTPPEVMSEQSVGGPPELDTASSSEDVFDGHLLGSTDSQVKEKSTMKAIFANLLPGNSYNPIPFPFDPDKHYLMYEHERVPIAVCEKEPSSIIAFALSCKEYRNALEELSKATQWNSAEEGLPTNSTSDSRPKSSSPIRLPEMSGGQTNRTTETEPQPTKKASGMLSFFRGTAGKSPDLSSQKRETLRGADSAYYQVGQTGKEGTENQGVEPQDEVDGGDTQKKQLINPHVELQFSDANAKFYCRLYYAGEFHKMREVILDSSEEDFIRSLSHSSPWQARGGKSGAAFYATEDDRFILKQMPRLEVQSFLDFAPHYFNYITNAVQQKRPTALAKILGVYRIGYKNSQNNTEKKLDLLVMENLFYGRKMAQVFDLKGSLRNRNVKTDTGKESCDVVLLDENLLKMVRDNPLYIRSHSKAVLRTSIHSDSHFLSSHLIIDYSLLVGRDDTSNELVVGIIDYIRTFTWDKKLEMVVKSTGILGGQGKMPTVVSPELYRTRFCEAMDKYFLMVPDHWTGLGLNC
procedure.text: Degradation of PIKfyve proteins in VCaP tumor cells (24 h, Western blot)
Assay type: cell-based
test.context: 37° C., compared with DMSO control, WB, read-out: DC50 (concentration that achieves 50% degradation activity)
measurement.name: DC50

Worked set:
- Cc1cccc(-c2ccn(-c3cc(N4CCOCC4)nc(Oc4ccc(N5CCC(N6CCN(c7cc8c(cc7F)C(=O)N(C7CCC(=O)NC7=O)C8=O)CC6)CC5)cc4)n3)n2)c1 (centres unmarked): 0.1 to 10 µM
- Cc1cccc(/C=N/Nc2cc(N3CCOCC3)nc(OCCc3ccc(NC(=O)CCCNC(=O)CSC(C)(C)[C@H](NC(=O)C4(F)CC4)C(=O)N4C[C@H](O)C[C@H]4C(=O)NCc4ccc(-c5scnc5C)cc4)cc3)n2)c1: 0.1 to 10 µM
- Cc1cccc(-c2ccn(-c3cc(N4CCOCC4)nc(OC4CCN(c5ccc(N6CCN(c7cc8c(cc7F)C(=O)N(C7CCC(=O)NC7=O)C8=O)CC6)cc5)CC4)n3)n2)c1 (centres unmarked): 0.1 to 10 µM
- Cc1cccc(-c2ccn(-c3cc(N4CCOCC4)nc(OC4CCN(c5ccc(NC(=O)CCCC[C@H](NC(=O)[C@@H]6C[C@@H](O)CN6C(=O)[C@@H](NC(=O)C6(F)CC6)C(C)(C)C)c6ccc(-c7scnc7C)cc6)cc5)CC4)n3)n2)c1: 0.001 to 0.1 µM

Query: Give DC50 (PIKfyve (Homo sapiens, UniProt Q9Y2I7)) of the following compound: Cc1cccc(-c2ccn(-c3cc(N4CCOCC4)nc(OC4CCN(c5ccc(NC(=O)NC6CCN(c7cc8c(cc7F)C(=O)N(C7CCC(=O)NC7=O)C8=O)CC6)cc5)CC4)n3)n2)c1 (centres unmarked)
Result: 0.1 to 10 µM

* * *

The reader will find reported DC50 values listed item by item below.
assay.target: PIKfyve (Homo sapiens, UniProt Q9Y2I7)
Construct: endogenous in cells; host or cells: VCaP
procedure.text: Degradation of PIKfyve proteins in VCaP tumor cells (24 h, Western blot)
Assay type: cell-based
test.context: 37° C., compared with DMSO control, WB, read-out: DC50 (concentration that achieves 50% degradation activity)

Worked set:
- Cc1cccc(/C=N/Nc2cc(N3CCOCC3)nc(OCCNC(=O)CCCCCCC(=O)N[C@H](C(=O)N3C[C@H](O)C[C@H]3C(=O)NCc3ccc(-c4scnc4C)cc3)C(C)(C)C)n2)c1: 100 to 10000 nM
- Cc1cccc(/C=N/Nc2cc(N3CCOCC3)nc(OCCNC(=O)CCCCC(=O)N[C@H](C(=O)N3C[C@H](O)C[C@H]3C(=O)NCc3ccc(-c4scnc4C)cc3)C(C)(C)C)n2)c1: 100 to 10000 nM
- Cc1cccc(/C=N/Nc2cc(N3CCOCC3)nc(OCCc3ccc(NC(=O)CCCCCCCNc4ccc5c(c4)C(=O)N(C4CCC(=O)NC4=O)C5=O)cc3)n2)c1 (centres unmarked): 100 to 10000 nM
- Cc1cccc(/C=N/Nc2cc(N3CCOCC3)nc(OCCc3ccc(NC(=O)CCCCCCCCC(=O)Nc4ccc5c(c4)C(=O)N(C4CCC(=O)NC4=O)C5)cc3)n2)c1 (centres unmarked): 100 to 10000 nM

Lab note: next compound to report on.
Query: Report DC50 for Cc1cccc(-c2ccn(-c3cc(N4CCOCC4)nc(OC4CCN(c5ccc(NC(=O)NC6CCN(C(=O)CC[C@H](NC(=O)[C@@H]7C[C@@H](O)CN7C(=O)[C@@H](NC(=O)C7(F)CC7)C(C)(C)C)c7ccc(-c8scnc8C)cc7)CC6)cc5)CC4)n3)n2)c1 please.
Result: 1 to 100 nM

* * *

The reader will find reported DC50 values listed item by item below.
assay.target: PIKfyve (Homo sapiens)
Construct: endogenous in cells; host or cells: VCaP
procedure.text: Degradation of PIKfyve proteins in VCaP tumor cells (24 h, Western blot)
Type: cell-based
test.context: 37° C., compared with DMSO control, WB, read-out: DC50 (concentration that achieves 50% degradation activity)

Worked set:
• Cc1cccc(/C=N/Nc2cc(N3CCOCC3)nc(OCCc3ccc(NC(=O)CCCC(=O)N[C@H](C(=O)N4C[C@H](O)C[C@H]4C(=O)N[C@@H](C)c4ccc(-c5scnc5C)cc4)C(C)(C)C)cc3)n2)c1 = 1 to 100 nM
• Cc1cccc(-c2ccn(-c3cc(N4CCOCC4)nc(OC4CCN(c5ccc(NC(=O)NC6CN(C(=O)CC[C@H](NC(=O)[C@@H]7C[C@@H](O)CN7C(=O)[C@@H](NC(=O)C7(F)CC7)C(C)(C)C)c7ccc(-c8scnc8C)cc7)C6)cc5)CC4)n3)n2)c1 = 1 to 100 nM
• Cc1cccc(-c2ccn(-c3cc(N4CCOCC4)nc(OCCc4ccc(NC(=O)CNC(=O)CC[C@H](NC(=O)[C@@H]5C[C@@H](O)CN5C(=O)[C@@H](NC(=O)C5(F)CC5)C(C)(C)C)c5ccc(-c6scnc6C)cc5)cc4)n3)n2)c1 = 1 to 100 nM
• Cc1cccc(/C=N/Nc2cc(N3CCOCC3)nc(OCCc3ccc(NC(=O)CCCNc4ccc5c(c4)C(=O)N(C4CCC(=O)NC4=O)C5=O)cc3)n2)c1 (stereo not shown) = 100 to 10000 nM
• Cc1cccc(/C=N/Nc2cc(N3CCOCC3)nc(OCCc3ccc(NC(=O)CCCCCCC(=O)Nc4cccc5c4CN(C4CCC(=O)NC4=O)C5=O)cc3)n2)c1 (stereo not shown) = 1 to 100 nM

Query: Report DC50 for Cc1cccc(-c2ccn(-c3cc(N4CCOCC4)nc(OCCc4ccc(C#CC5CCN(c6cc7c(cc6F)C(=O)N(C6CCC(=O)NC6=O)C7=O)CC5)cc4)n3)n2)c1 (stereo not shown) please.
Result: 100 to 10000 nM

Query: Report DC50 for Cc1cccc(-c2ccn(-c3cc(N4CCOCC4)nc(OCCc4ccc(NC(=O)CCCCCNC(=O)COc5cc(-c6scnc6C)ccc5CNC(=O)[C@@H]5C[C@@H](O)CN5C(=O)[C@@H](NC(=O)C5(F)CC5)C(C)(C)C)cc4)n3)n2)c1 please.
Result: 1 to 100 nM

* * *

The reader will find reported DC50 values listed item by item below.
assay.target: PIKfyve (Homo sapiens, UniProt Q9Y2I7)
Construct: endogenous in cells; host or cells: VCaP
procedure.text: Degradation of PIKfyve proteins in VCaP tumor cells (24 h, Western blot)
Assay type: cell-based
test.context: 37° C., compared with DMSO control, WB, read-out: DC50 (concentration that achieves 50% degradation activity)

Worked set:
- Cc1cccc(/C=N/Nc2cc(N3CCOCC3)nc(OCCc3ccc(NC(=O)CCC(=O)N[C@H](C(=O)N4C[C@H](O)C[C@H]4C(=O)NCc4ccc(-c5scnc5C)cc4)C(C)(C)C)cc3)n2)c1 [Example 37]: 100 to 10000 nM
- Cc1cccc(-c2ccn(-c3cc(N4CCOCC4)nc(OC4CCN(c5ccc(N6CCN(C(=O)CC[C@H](NC(=O)[C@@H]7C[C@@H](O)CN7C(=O)[C@@H](NC(=O)C7(F)CC7)C(C)(C)C)c7ccc(-c8scnc8C)cc7)CC6)cc5)CC4)n3)n2)c1 [Example 85]: 1 to 100 nM
- Cc1cccc(-c2ccn(-c3cc(N4CCOCC4)nc(OC4CCN(c5ccc(N6CCN(C(=O)C[C@H](NC(=O)[C@@H]7C[C@@H](O)CN7C(=O)[C@@H](NC(=O)C7(F)CC7)C(C)(C)C)c7ccc(-c8scnc8C)cc7)CC6)cc5)CC4)n3)n2)c1 [Example 84]: 1 to 100 nM

Lab note: next compound to report on.
Query: Report DC50 for Cc1cccc(/C=N/Nc2cc(N3CCOCC3)nc(OCCc3ccc(NC(=O)CCCCCCCC(=O)N[C@H](C(=O)N4C[C@H](O)C[C@H]4C(=O)NCc4ccc(-c5scnc5C)cc4)C(C)(C)C)cc3)n2)c1 [Example 43] please.
Result: 1 to 100 nM
